assay: Ex vivo biodistribution in PC-3 tumor-bearing mice; settings: male, NRG, mouse, PC-3 tumor / bone, iv, total radioactivity, Tumor/bone Mean, uptake ratio, 1 h post-injection, n = 4

[
  {
    "compound": "CC(C)C[C@@H](CN1CSC[C@H]1C(N)=O)NC(=O)[C@H](Cc1cnc[nH]1)NC(=O)CN(C)C(=O)[C@@H](NC(=O)[C@H](C)NC(=O)[C@H](Cc1c[nH]c2ccccc12)NC(=O)[C@H](CCC(N)=O)NC(=O)[C@@H](Cc1ccccc1)NC(=O)CN1CCC(NC(=O)CN2CCN(CC(=O)O)CCN(CC(=O)O)CCN(CC(=O)O)CC2)CC1)C(C)C [^68Ga-LW01090, metal not drawn]",
    "tissue to tissue ratio at 1 h": 175
  }
]
